# credit: the supplement of paper PMC6555819

tested on: PPARg:RXRa 30nM:10nM, anti-RXR (NR concentration 30 nM, RXRa partner concentration 10 nM); assay: PBM binding z-score (relative to random genomic background probes); higher = stronger binding; sequences stand for … in GC…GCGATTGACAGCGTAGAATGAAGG
Assign PBM binding z-score to each entry below.
Give the value as a plain number.

Tell me PBM binding z-score of CGTCCAAGGTCAGCTGGTCAGTGAAAGCGACGTG when tested on PPARg:RXRa 30nM:10nM, anti-RXR (NR concentration 30 nM, RXRa partner concentration 10 nM).
0.432

Tell me PBM binding z-score of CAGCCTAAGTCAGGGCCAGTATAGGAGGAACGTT when tested on PPARg:RXRa 30nM:10nM, anti-RXR (NR concentration 30 nM, RXRa partner concentration 10 nM).
-0.0751

Tell me PBM binding z-score of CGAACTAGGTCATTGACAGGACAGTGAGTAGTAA when tested on PPARg:RXRa 30nM:10nM, anti-RXR (NR concentration 30 nM, RXRa partner concentration 10 nM).
3.7

Tell me PBM binding z-score of TTACCGAGGTGAGCTGAGGTCGTTGATCCAACTC when tested on PPARg:RXRa 30nM:10nM, anti-RXR (NR concentration 30 nM, RXRa partner concentration 10 nM).
-0.318

Tell me PBM binding z-score of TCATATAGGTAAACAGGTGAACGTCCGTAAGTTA when tested on PPARg:RXRa 30nM:10nM, anti-RXR (NR concentration 30 nM, RXRa partner concentration 10 nM).
4.2

Tell me PBM binding z-score of AGTCATAGTTCAGGACGAGGTAACGTAAAGCACG when tested on PPARg:RXRa 30nM:10nM, anti-RXR (NR concentration 30 nM, RXRa partner concentration 10 nM).
0.782

Tell me PBM binding z-score of CGGCCTAGGTCAGGGCCAGTATAGGAGGAACGTT when tested on PPARg:RXRa 30nM:10nM, anti-RXR (NR concentration 30 nM, RXRa partner concentration 10 nM).
-0.446

Tell me PBM binding z-score of TCTTGTAGATCAATGGTTAAGAAAGCCGAAGCCT when tested on PPARg:RXRa 30nM:10nM, anti-RXR (NR concentration 30 nM, RXRa partner concentration 10 nM).
3.07

Tell me PBM binding z-score of CGTCAAAGTTCACGGTAACGTAACAGAAAGCAGC when tested on PPARg:RXRa 30nM:10nM, anti-RXR (NR concentration 30 nM, RXRa partner concentration 10 nM).
3.33

Tell me PBM binding z-score of TCTATTAGTTTAAGGGCAACCGACGAGTCCGTTT when tested on PPARg:RXRa 30nM:10nM, anti-RXR (NR concentration 30 nM, RXRa partner concentration 10 nM).
3.91

Tell me PBM binding z-score of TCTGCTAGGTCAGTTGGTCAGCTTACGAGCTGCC when tested on PPARg:RXRa 30nM:10nM, anti-RXR (NR concentration 30 nM, RXRa partner concentration 10 nM).
0.977

Tell me PBM binding z-score of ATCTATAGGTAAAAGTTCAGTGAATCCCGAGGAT when tested on PPARg:RXRa 30nM:10nM, anti-RXR (NR concentration 30 nM, RXRa partner concentration 10 nM).
5.53

Tell me PBM binding z-score of CCTGCTAGGTCATAGTCAGCTAATCTACAGTATG when tested on PPARg:RXRa 30nM:10nM, anti-RXR (NR concentration 30 nM, RXRa partner concentration 10 nM).
0.394

Tell me PBM binding z-score of TTGCCTAGGTCATGGGCCAGTATACCACGCGAAC when tested on PPARg:RXRa 30nM:10nM, anti-RXR (NR concentration 30 nM, RXRa partner concentration 10 nM).
0.614
